B1: SNX3 (parent)
chain: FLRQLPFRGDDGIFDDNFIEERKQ

- Variants of: B1
- experimental-details: protein stability index of a GFP-peptide fusion (GPS, HEK-293T) (PSI 1-6); higher = more stable;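 also: lentivirally expressed fusions sorted by FACS into six bins by GFP to DsRed ratio, PSI derived from sequencing read proportions per bin multiplied by bin number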
- condition-details: c terminus: a fixed tail appended
Use 3 as the dividing line for protein stability index, with the line itself on the label 1 side and lower values as label 0.

INSERT INTO measurements (mutation_annotation, classification) VALUES
  ('D15L', 'label 1'),
  ('L5S', 'label 1'),
  ('R22K', 'label 1'),
  ('F7E', 'label 1'),
  ('F18H', 'label 1'),
  ('D10H', 'label 1'),
  ('F1D', 'label 1'),
  ('Q24P', 'label 0'),
  ('N17Y', 'label 0'),
  ('F1K', 'label 1'),
  ('F14S', 'label 1'),
  ('D10R', 'label 1'),
  ('F18R', 'label 1'),
  ('R3Q', 'label 1'),
  ('F18W', 'label 1'),
  ('R3A', 'label 1'),
  ('E21V', 'label 0'),
  ('L2E', 'label 1'),
  ('I13P', 'label 1'),
  ('G9A', 'label 1'),
  ('F1L', 'label 1'),
  ('R22S', 'label 0'),
  ('N17W', 'label 0'),
  ('Q24E', 'label 1'),
  ('L2K', 'label 0'),
  ('I19G', 'label 1'),
  ('Q4G', 'label 1'),
  ('E20L', 'label 0'),
  ('I13L', 'label 1'),
  ('F18S', 'label 1'),
  ('D10M', 'label 1'),
  ('D10S', 'label 1'),
  ('N17P', 'label 1'),
  ('Q4P', 'label 0'),
  ('D10L', 'label 0'),
  ('F1V', 'label 1'),
  ('G12Q', 'label 1'),
  ('R8H', 'label 1'),
  ('F1I', 'label 1'),
  ('D11Y', 'label 0'),
  ('Q24G', 'label 1'),
  ('E20R', 'label 1'),
  ('L5T', 'label 1');
